Target: T1, ChlR1-Q23A (Homo sapiens, UniProt Q96FC9-2 1-906, Q23A)
T1 sequence: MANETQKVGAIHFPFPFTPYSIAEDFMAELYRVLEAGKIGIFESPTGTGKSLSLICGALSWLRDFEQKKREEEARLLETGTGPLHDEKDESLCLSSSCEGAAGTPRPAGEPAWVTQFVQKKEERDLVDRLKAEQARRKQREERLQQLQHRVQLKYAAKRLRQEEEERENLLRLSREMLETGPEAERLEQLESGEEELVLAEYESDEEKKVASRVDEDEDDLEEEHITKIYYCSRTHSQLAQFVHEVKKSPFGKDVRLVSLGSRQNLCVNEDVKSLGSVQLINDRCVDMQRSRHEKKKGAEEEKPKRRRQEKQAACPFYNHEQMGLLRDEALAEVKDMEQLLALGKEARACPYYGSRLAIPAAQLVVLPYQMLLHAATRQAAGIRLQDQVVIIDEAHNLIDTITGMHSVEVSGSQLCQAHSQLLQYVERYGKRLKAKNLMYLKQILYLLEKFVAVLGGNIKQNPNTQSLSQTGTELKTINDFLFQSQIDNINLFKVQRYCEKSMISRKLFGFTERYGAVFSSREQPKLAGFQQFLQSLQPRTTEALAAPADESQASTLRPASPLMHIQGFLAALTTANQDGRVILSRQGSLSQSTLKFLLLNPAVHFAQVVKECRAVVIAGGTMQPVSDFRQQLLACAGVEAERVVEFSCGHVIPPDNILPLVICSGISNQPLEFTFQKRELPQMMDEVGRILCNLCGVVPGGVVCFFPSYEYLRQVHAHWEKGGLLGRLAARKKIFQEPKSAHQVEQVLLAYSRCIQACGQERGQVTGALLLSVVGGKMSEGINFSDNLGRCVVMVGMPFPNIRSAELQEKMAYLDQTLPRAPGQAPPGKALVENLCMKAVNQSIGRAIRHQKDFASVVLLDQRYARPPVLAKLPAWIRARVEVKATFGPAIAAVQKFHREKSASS
Assay: filter binding; 37 C, 1 mM Mg(OAc)2; EMSA: 40 mM Tris-HCl pH 7.4, 25 mM KCl, 5 mM MgCl2, 2 mM DTT, 2% glycerol, 100 ng/uL BSA, no ATP, 0.5 nM DNA, room temp 30 min; anisotropy: same buffer, 21 C; filter binding: 25 mM Tris-HCl pH 7.5, 25 mM KOAc, 1 mM Mg(OAc)2, 1 mM DTT, 100 ug/mL BSA, 37 C 30 min
Conditions: protein: recombinant; tags: FLAG; label: 32P (5' end); fork, 19 bp duplex; 5' ssDNA tail 26 nt (DC26) and 3' ssDNA tail 25 nt (TSTEM25)
pKd: −log10 of the molar value.
QUANTITY KIND: pKd

[
  {
    "BINDER": "Forked duplex (DC26/TSTEM25) (dsDNA) DNA 1: TTTTTTTTTTTTTTTTTTTTTTCCCAGTAAAACGACGGCCAGTGC DNA 2: GCACTGGCCGTCGTTTTACGGTCGTGACTGGGAAAACCCTGGCG",
    "VALUE": 6.40
  }
]
